molecular target: EGFR(L858R/T790M) (Homo sapiens, UniProt P00533, L858R/T790M); construct: purchased from Carna (GST-a.a. 669-1210); experiment: EGFR biochemical assay (HTRF), IC50 determinations; details: EGFR (L858R/T790M) with no pre-incubation; read-out: IC50 (μM) Column A
valueType: IC50 (µM)

Worked examples, 5 compounds total:
Cc1cccc2nc(NC(=O)c3ccc(F)cc3F)n(C3CCCCN(C(=O)/C=C/CN(C)C)C3)c12 (stereo not shown)	0.014
C=CC(=O)N1CCC[C@@H](n2c(NC(=O)c3cccc(C(F)(F)F)c3)nc3cc(C(=O)O)ccc32)C1	2.59
C=CC(=O)N1CCC[C@@H](n2c(NC(=O)c3cccc(C(F)(F)F)c3)nc3cc(CN4CCC(F)(F)C4)ccc32)C1	0.068
C=CC(=O)N1CCCC(n2c(NC(=O)c3cccc(C(F)(F)F)c3)nc3ccncc32)C1 (stereo not shown)	4.1
Cc1cccc2nc(NC(=O)c3ccc(Cl)nc3)n([C@@H]3CCCCN(C(=O)/C=C/CN(C)C)C3)c12	0.003

I: CO[C@H]1CCN(C/C=C/C(=O)N2CCCC[C@@H](n3c(NC(=O)c4ccnc(C)c4)nc4cccc(Cl)c43)C2)C1
II: COc1cc(C(=O)Nc2nc3cccc(C)c3n2[C@@H]2CCCCN(C(=O)/C=C/CN(C)C)C2)cc(Cl)n1
III: C=CC(=O)N1CCC[C@@H](n2c(NC(=O)c3cccc(C(F)(F)F)c3)nc3cc(C)ccc32)C1
Put the entries in order of IC50, starting with the largest number. Provide the ranking by listing each label in its place in the requested order. III, II, I
(III: 0.1 µM, II: 0.017 µM, I: 0.007 µM)

* * *

target: H3255 (EGFR L858R) (Homo sapiens, UniProt P00533, L858R); assay: EGFR target modulation in H3255 cell line (phospho-EGFR Y1173 ELISA)
Sequence (P00533 25-1210 L858R): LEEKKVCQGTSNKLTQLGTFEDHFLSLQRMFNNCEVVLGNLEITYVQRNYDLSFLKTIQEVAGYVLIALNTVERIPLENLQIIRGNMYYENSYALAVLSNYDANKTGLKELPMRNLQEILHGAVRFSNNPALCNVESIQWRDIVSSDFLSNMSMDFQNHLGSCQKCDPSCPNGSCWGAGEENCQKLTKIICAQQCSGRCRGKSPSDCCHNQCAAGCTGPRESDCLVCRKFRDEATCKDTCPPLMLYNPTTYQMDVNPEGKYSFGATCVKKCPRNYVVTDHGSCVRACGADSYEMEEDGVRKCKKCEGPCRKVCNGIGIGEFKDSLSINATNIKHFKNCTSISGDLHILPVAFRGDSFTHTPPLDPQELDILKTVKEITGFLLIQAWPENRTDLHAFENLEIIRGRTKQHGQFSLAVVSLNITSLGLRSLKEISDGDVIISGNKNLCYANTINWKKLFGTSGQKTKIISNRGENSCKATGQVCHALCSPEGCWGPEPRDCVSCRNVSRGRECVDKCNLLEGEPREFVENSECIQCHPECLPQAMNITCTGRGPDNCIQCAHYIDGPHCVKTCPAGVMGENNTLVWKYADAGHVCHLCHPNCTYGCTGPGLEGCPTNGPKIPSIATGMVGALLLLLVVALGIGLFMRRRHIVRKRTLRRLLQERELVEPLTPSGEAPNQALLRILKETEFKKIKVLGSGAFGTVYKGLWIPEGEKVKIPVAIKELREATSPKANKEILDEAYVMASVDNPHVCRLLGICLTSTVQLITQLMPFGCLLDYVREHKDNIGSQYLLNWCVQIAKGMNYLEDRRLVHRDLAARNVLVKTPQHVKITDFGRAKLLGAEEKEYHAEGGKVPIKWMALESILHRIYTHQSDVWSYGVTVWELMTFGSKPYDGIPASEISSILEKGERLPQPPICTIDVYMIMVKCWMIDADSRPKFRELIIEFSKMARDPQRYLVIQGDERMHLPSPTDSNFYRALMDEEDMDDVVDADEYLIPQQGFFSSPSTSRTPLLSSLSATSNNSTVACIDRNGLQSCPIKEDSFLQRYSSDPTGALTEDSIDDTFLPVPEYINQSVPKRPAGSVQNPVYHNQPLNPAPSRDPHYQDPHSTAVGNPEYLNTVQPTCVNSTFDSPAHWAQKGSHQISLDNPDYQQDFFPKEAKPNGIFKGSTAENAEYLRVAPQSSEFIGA
valueType: IC50 (µM)

Worked examples, 8 molecules total:
C=CC(=O)N1CCCC[C@@H](n2c(NC(=O)c3ccnc(C)c3)nc3cc(CN4CCC(F)(F)C4)cc(C)c32)C1 [Example 17-151]	0.001
C/C=C/C(=O)N1CCCC[C@@H](n2c(NC(=O)c3cc(C)nc(C)c3)nc3cc(CN4CC[C@H](OC)C4)ccc32)C1 [Example 17-174]	0.202
C=CC(=O)N1CCCC[C@@H](n2c(NC(=O)c3cccc(C(F)(F)F)c3)nc3cccc(C(F)(F)F)c32)C1 [Example 17-12]	0.147
Cc1cc(C(=O)Nc2nc3cccc(C)c3n2[C@@H]2CCCCN(C(=O)/C=C/CN(C)C)C2)ccn1 [Example 7]	0.002
C=CC(=O)N1CCCC[C@@H](n2c(NC(=O)c3ccnnc3)nc3cccc(Cl)c32)C1 [Example 17-15]	0.022
Cc1cccc2nc(NC(=O)c3ccnnc3)n(C3CCCCN(C(=O)/C=C/CN(C)C)C3)c12 (stereo not shown) [Example 17-24]	0.009
Cc1cc(C(=O)Nc2nc3cccc(Cl)c3n2[C@@H]2CCCCN(C(=O)/C=C/CN3CC[C@H](F)C3)C2)ccn1 [Example 3-2]	0.011
C=CC(=O)N1CCCC[C@@H](n2c(NC(=O)c3cnnc(C)c3)nc3cc(CN4CCCC4)cc(C)c32)C1 [Example 17-161]	0.009

I: COc1cc(C(=O)Nc2nc3cccc(C)c3n2C2CCCCN(C(=O)/C=C/CN(C)C)C2)ccn1 (stereo not shown) [Example 17-48]
II: C=CC(=O)N1CCCCC(n2c(NC(=O)c3cccc(C(F)(F)F)c3)nc3cc(C)ccc32)C1 (stereo not shown) [Example 17-1]
III: Cc1cccc2nc(NC(=O)c3ccc(F)cc3F)n(C3CCCCN(C(=O)/C=C/CN(C)C)C3)c12 (stereo not shown) [Example 17-28]
IV: Cc1cc(C(=O)Nc2nc3cccc(Cl)c3n2[C@@H]2CCCCN(C(=O)C3=CCCN(C)C3)C2)ccn1 [Example 3-16]
List by increasing IC50. Provide the ranking by listing each label in its place in the requested order. I, II, III, IV
(I: 0.007 µM, II: 0.033 µM, III: 0.081 µM, IV: 2.53 µM)

1: C/C=C/C(=O)N1CCCC[C@@H](n2c(NC(=O)c3ccnc(C)c3)nc3cc(CN4CCCC4)cc(C)c32)C1 [Example 17-164]
2: COc1cccc2nc(NC(=O)c3ccnc(C)c3)n([C@@H]3CCCCN(C(=O)/C=C/CN(C)C)C3)c12 [Example 17-176]
Given 1 and given 2 , which shows the smaller recorded IC50? Output the label that corresponds to your choice. 2

a: C=CC(=O)N1CCC[C@@H](n2c(NC(=O)c3cccc(C(F)(F)F)c3)nc3cccc(C)c32)C1 [Example 17-106]
b: Cc1cccc2nc(NC(=O)c3cccc(S(C)(=O)=O)c3)n(C3CCCCN(C(=O)/C=C/CN(C)C)C3)c12 (stereo not shown) [Example 17-52]
c: C=CC(=O)N1CCCC[C@@H](n2c(NC(=O)c3ccnnc3)nc3ccc(OC)c(Cl)c32)C1 [Example 9]
d: C=CC(=O)N1CCCC[C@@H](n2c(NC(=O)c3cccc(C(F)(F)F)c3)nc3cccc(C)c32)C1 (single isomer, unassigned) [Example 21-4]
e: Cc1cccc2nc(NC(=O)c3ccc(F)c(F)c3)n(C3CCCCN(C(=O)/C=C/CN(C)C)C3)c12 (stereo not shown) [Example 17-30]
List by increasing IC50. Provide the ranking by listing each label in its place in the requested order. b, c, d, e, a

* * *

biological target: EGFR(L858R/T790M) (Homo sapiens, UniProt P00533, L858R/T790M); construct: purchased from Carna (GST-a.a. 669-1210); assay: EGFR biochemical assay (HTRF), IC50 determinations; conditions: EGFR (L858R/T790M) with no pre-incubation; read-out: IC50 (μM) Column A
valueType: IC50 (µM)

Worked examples, 3 compounds total:
Cc1cccc2nc(NC(=O)c3ccc(C(F)(F)F)nc3)n(C3CCCCN(C(=O)/C=C/CN(C)C)C3)c12 (centres unmarked)	0.092
Cc1cc(C(=O)Nc2nc3cccc(Cl)c3n2[C@@H]2CCCCN(C(=O)/C=C/CNC(C)(C)C)C2)ccn1	0.004
Cc1cccc2nc(NC(=O)c3ccc4nccn4c3)n(C3CCCCN(C(=O)/C=C/CN(C)C)C3)c12 (centres unmarked)	0.007

I: C=CC(=O)N1CC(n2c(NC(=O)c3cccc(C(F)(F)F)c3)nc3cc(C)ccc32)C1
II: C=CC(=O)N1CCCC[C@@H](n2c(NC(=O)c3ccnc(C)c3)nc3ccc(OCCN4CCCC4)c(Cl)c32)C1
Identify the entry with the larger IC50. Options: I and II Output the label that corresponds to your choice. I
(I: 1.22 µM, II: 0.002 µM)

a: C=CC(=O)N1CCCCC(n2c(NC(=O)c3ccccc3)nc3cccc(C(=O)N4C[C@@H](O)[C@H](O)C4)c32)C1 (some centres unmarked)
b: C=CC(=O)N1CCCC[C@@H](n2c(NC(=O)c3ccnc(C)c3)nc3cc(CN4CC[C@H](O)C4)cc(C)c32)C1
Given a and given b , which shows the smaller recorded IC50? Output the label that corresponds to your choice. b
(b: 0.002 µM, a: 0.94 µM)

I: Cc1cc(C(=O)Nc2nc3cccc(Cl)c3n2[C@@H]2CCCCN(C(=O)/C=C/CN3CC[C@H](O)C3)C2)ccn1
II: C=CC(=O)N1CCCC[C@@H](n2c(NC(=O)c3ccccc3)nc3cccc(CN(C)CCS(C)(=O)=O)c32)C1
Given I and given II , which shows the smaller recorded IC50? Output the label that corresponds to your choice. I
(I: 0.006 µM, II: 0.018 µM)

I: C=CC(=O)N1CCCC[C@@H](n2c(NC(=O)c3cc(C)nc(C)c3)nc3cc(CN4CC[C@H](OC)C4)ccc32)C1
II: Cc1cc(C(=O)Nc2nc3cccc(Cl)c3n2[C@@H]2CCCCN(C(=O)/C=C/CN3CC(F)C3)C2)ccn1
III: C=CC(=O)N1CCCC[C@@H](n2c(NC(=O)c3cccc(F)c3F)nc3cc(CN4CC[C@@H](OC)C4)cc(C)c32)C1
IV: C=CC(=O)N1CCCC[C@@H](n2c(NC(=O)c3ccnc(C)c3)nc3cc(CN4CC(OC)C4)cc(C)c32)C1
List by increasing IC50. Provide the ranking by listing each label in its place in the requested order. IV, I, III, II
(IV: 0.002 µM, I: 0.004 µM, III: 0.007 µM, II: 0.01 µM)

* * *

biological target: human EGFR L858R (NIH/3T3 cells) (Homo sapiens, UniProt P00533, L858R); assay: EGFR target modulation in engineered NIH/3T3 cell lines (phospho-EGFR Y1068 AlphaLISA), EGFR L858R; format: cell-based; conditions: engineered NIH/3T3 cells, read-out: NIH3T3 IC50 (μM) EGFR (L858R)
Sequence (P00533 25-1210 L858R): as above
valueType: IC50 (µM)

C=CC(=O)N1CCCC(n2c(NC(=O)c3cccc(C(F)(F)F)c3)nc3c2CN(C(C)=O)CC3)C1 (centres unmarked)	1.4

I: CCOc1cc(C(=O)Nc2nc3cccc(C)c3n2C2CCCCN(C(=O)/C=C/CN(C)C)C2)ccn1 (centres unmarked)
II: C=CC(=O)N1CCCC[C@@H](n2c(NC(=O)c3ccnc(C)c3)nc3cc(CN4CC[C@H](O)C4)cc(C)c32)C1
III: Cc1cccc2nc(NC(=O)c3cncc(F)c3)n([C@@H]3CCCCN(C(=O)/C=C/CN(C)C)C3)c12
Put the entries in order of IC50, starting with the largest number. Provide the ranking by listing each label in its place in the requested order. II, I, III
(II: 0.003 µM, I: 0.002 µM, III: 0.001 µM)
